Target: T1, soluble form of GPC3 core protein (human, UniProt P51654 25-563)
T1 construct: not shown: His tag added to the C-terminus
T1 sequence (P51654 25-563 S495A/S509A, form in doubt): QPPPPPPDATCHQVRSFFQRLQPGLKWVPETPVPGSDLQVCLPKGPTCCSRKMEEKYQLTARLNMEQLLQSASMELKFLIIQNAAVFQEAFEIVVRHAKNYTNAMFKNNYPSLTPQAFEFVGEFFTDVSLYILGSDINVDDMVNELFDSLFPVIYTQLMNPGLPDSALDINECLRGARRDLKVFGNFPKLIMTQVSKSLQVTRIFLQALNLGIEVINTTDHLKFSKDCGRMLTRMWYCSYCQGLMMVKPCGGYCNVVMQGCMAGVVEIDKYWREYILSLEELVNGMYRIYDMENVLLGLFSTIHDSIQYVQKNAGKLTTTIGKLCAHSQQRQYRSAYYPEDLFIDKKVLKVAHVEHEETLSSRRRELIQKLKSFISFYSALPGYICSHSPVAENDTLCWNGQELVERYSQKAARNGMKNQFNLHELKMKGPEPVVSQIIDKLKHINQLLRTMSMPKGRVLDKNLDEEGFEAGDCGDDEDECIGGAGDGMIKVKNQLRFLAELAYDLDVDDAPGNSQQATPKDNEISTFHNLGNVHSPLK
Experiment: competitive ELISA on coated soluble GPC3 core protein; labelled competitor biotin-M5B9;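 also: Biotin-labelled antibody added as 10 µL at 10 µg/mL for 1 h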
Measured Inhibition of the binding of indicated biotin-Mab to sGPC3 core (%) by item
Please reply with the bare figure in % and do not write the unit itself.

M6B1 (antibody, V domains shown, Mouse monoclonal from hybridoma) VH: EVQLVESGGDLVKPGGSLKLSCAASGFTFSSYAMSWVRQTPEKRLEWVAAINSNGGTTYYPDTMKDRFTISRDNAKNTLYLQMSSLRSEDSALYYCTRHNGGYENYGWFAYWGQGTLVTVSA VL: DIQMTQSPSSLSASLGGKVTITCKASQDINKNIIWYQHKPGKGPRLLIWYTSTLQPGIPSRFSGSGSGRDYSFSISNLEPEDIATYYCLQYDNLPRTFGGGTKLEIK = 44.4
M10D2 (antibody, V domains shown, Mouse monoclonal from hybridoma) VH: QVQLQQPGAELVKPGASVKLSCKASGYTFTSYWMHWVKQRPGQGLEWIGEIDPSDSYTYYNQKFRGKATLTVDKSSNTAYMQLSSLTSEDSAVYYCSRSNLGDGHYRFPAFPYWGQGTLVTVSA VL: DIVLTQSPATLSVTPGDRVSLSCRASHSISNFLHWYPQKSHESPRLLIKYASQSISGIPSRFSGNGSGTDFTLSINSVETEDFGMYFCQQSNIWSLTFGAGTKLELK = -10.3

Please look at the following binder next.
Given item M5B9 (antibody, V domains shown, Mouse monoclonal from hybridoma) VH: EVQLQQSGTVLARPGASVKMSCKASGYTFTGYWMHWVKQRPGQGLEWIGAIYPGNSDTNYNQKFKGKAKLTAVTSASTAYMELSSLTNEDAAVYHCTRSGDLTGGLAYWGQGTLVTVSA VL: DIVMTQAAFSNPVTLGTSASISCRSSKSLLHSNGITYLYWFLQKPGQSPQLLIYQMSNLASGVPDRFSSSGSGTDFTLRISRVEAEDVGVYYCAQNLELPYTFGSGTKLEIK , the value recorded as its Inhibition of the binding of indicated biotin-Mab to sGPC3 core (%) is 77.3
